Tested on: SW-620
TEST SUMMARY: NCI tumour cell line growth inhibition, 48 h
Structures can show the parent of a compound that is named as a salt. The source made the active and inactive calls. Cut-off read from the data, not from the text of the source: active = GI50 up to about 1.1 µM and inactive = higher.
Labels: class 1 (active), class 0 (inactive)

MOLECULE	CLASS NAME
CCOC(=O)c1ccc(C)c(/N=N/N(C)C)c1	class 0
O=C(O)/C=C/C(=O)Nc1cccc2c1-c1ccccc1C2=O	class 0
Cn1c(=O)c2c3ccccc3n(C)c2n(C)c1=O	class 0
N[C@@H](Cc1ccc(N(CCCl)CCCl)cc1)C(=O)O [MELPHALAN HYDROCHLORIDE]	class 0
Cc1ccc(C2COc3cc(O)c(O)cc3C2)cc1 (centres undefined)	class 0
COc1ccc(C2=NC(CO)[C@H](c3ccccc3)O2)cc1OC (some centres undefined)	class 0
CN(C)CC(C)(C)/C(=N\Nc1ccccc1)c1ccccc1	class 0
Oc1c(Cl)cc2cc1-c1cc(cc(Cl)c1O)CCc1c(cc(Cl)c(O)c1Cl)-c1cc(Cl)c(c(Cl)c1O)/C=C\2	class 0
CNC(=O)CN(CC(N)=O)C(N)=O	class 0
O=c1c(O)c(-c2cc(O)c(O)c(O)c2)oc2cc(O)cc(O)c12	class 0
C/C(=N\Nc1nc2ccccc2s1)c1ccc2ccccc2n1	class 0
CCc1cccc(NC(=O)c2cc(/C=C/c3ccccc3)nc(S)n2)c1	class 0
Cc1cc(OCC(=O)O)c(Cl)cc1Cl	class 0
O=C(CC1(O)C(=O)Nc2ccccc21)c1ccncc1 (centres undefined)	class 0
COc1ccc(C(=O)Nc2ccccc2)cc1[N+](=O)[O-]	class 0
C[C@H]1C(=O)CC[C@]2(C)CCC(C(C)(C)O)CC12O (some centres undefined)	class 0
CCOC1=C2N=C(C(CC)c3ccc(F)cc3)N=C2C(=O)c2ccccc21 (centres undefined)	class 0
NC1=C(Cl)C(=O)c2ccccc2C1=O	class 0
O=C1[C@@H]2C3C=CC([C@H]4C(=O)N(CO)C(=O)[C@@H]34)[C@@H]2C(=O)N1CO	class 0
Cc1ccc(NC(=O)OCC(COc2ccc(Cl)cc2Cl)OC(=O)Nc2ccc(C)cc2)cc1 (centres undefined)	class 0
CC(C)(C)CC(C)(C)NCC(O)COc1ccc(C(C)(C)c2ccc(OCC(O)CNC(C)(C)CC(C)(C)C)cc2)cc1 (centres undefined)	class 1
CC(=O)O[C@H]1CCC2[C@@H]3CCC4Cc5nc6c(nc5C[C@]4(C)C3CC[C@@]21C)CC1CC[C@@H]2C(CC[C@@]3(C)C2CC[C@@H]3C(C)CCCC(C)C)[C@@]1(C)C6 (some centres undefined)	class 0
CCC/C(Cl)=N/OC(NC(=O)OCC)(C(F)(F)F)C(F)(F)F	class 0
COc1ccc2c(c1)Oc1cc(O)ccc1[C@@H]2c1ccccc1C(=O)NC(C)c1ccccc1 (some centres undefined)	class 0
Cn1c2ccccc2c2c(=S)c3ccccc3ccc21	class 0
CCCCN(CCCC)C(=Nc1ccccc1)N(CCCC)CCCC	class 0
CCOc1ccc(NC(=O)C2=C(C)NC(C)=C(C(=O)Nc3ccc(OCC)cc3)C2c2ccc([N+](=O)[O-])cc2)cc1	class 0
CC(=O)Nc1ccc(-c2nnc(SCC(=O)Nc3cccc(Cl)c3)o2)cc1	class 0
Cc1ccc2nc(Cl)c(/C=N/N3C(=O)/C(=C/Cc4ccco4)N=C3c3ccccc3)cc2c1	class 0
COc1ccc(/C=C/c2cc(OC)c(OC)c(OC)c2)cc1OC	class 0
O=C1c2cccc3cc([N+](=O)[O-])cc(c23)C(=O)N1c1ccc(OCCN2CCCC2)cc1	class 0
COc1cc2oc(-c3ccc4c(c3)OCO4)c(OC)c(=O)c2c(OC)c1O	class 0
O=C(/C=C/c1ccc(O)c(O)c1)Oc1ccccc1	class 0
Cc1ccc(/C=N\NC(=O)c2ccncc2)s1	class 0
[N-]=[N+]=Nc1ccc2c(c1)Sc1ccccc1N2CCCCCl	class 0
COC(=O)c1c(C)c2c(c(C)c1O)OC(=O)c1c(C)cc(O)c(C=O)c1O2	class 0
C[C@H](O)CCC(=O)c1ccoc1	class 0
Cc1cc(C#N)c[n+](C)c1	class 0
CC(C)(O)C(O)COc1c2c(cc3oc(=O)ccc13)OCO2 (centres undefined)	class 0
CC(NS(=O)(=O)c1ccc([N+](=O)[O-])cc1)C(=O)O (centres undefined)	class 0
O=C1CC(O)C=C1Nc1ccc(Cl)cc1 (centres undefined)	class 0
O=C1CSC(=S)N1c1ccco1	class 0
Nc1ncc2ncn(C3CCC(CO)O3)c2n1 (centres undefined)	class 0
Cc1ccc(C)c(N2C(=O)C(=O)c3c(C)ccc(C)c32)c1	class 0
